B1: LINE1-mini (parent)
chain: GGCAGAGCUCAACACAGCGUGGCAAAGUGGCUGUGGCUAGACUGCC

# Variants of: B1
# assay-method-text: self-cleavage, relative activity (ratio to wild type); higher = more cleavage; in vitro, sequencing; the parent is a self-cleaving ribozyme

>  <residue-change>
G40U U43C

>  <self-cleavage>
0.15

$$$$
>  <residue-change>
G2C C13A

>  <self-cleavage>
0.08

$$$$
>  <residue-change>
A11G G21C

>  <self-cleavage>
0.02

$$$$
>  <residue-change>
G19U G36A

>  <self-cleavage>
0.1

$$$$
>  <residue-change>
U38G U43G

>  <self-cleavage>
0.02

$$$$
>  <residue-change>
C18A G40A

>  <self-cleavage>
0.05

$$$$
>  <residue-change>
C3U G40A

>  <self-cleavage>
0.12

$$$$
>  <residue-change>
C15U C31G

>  <self-cleavage>
0.06

$$$$
>  <residue-change>
G17A G36U

>  <self-cleavage>
0.05

$$$$
>  <residue-change>
A11C G44U

>  <self-cleavage>
0.03

$$$$
>  <residue-change>
A4G U9G

>  <self-cleavage>
0.23

$$$$

Origin of values: the RNAGym collection of RNA variant scans (doi:10.7554/elife.90254)
